Target: Cytochrome P450 1A2 (Homo sapiens, UniProt P05177)
Sequence (P05177 whole entry): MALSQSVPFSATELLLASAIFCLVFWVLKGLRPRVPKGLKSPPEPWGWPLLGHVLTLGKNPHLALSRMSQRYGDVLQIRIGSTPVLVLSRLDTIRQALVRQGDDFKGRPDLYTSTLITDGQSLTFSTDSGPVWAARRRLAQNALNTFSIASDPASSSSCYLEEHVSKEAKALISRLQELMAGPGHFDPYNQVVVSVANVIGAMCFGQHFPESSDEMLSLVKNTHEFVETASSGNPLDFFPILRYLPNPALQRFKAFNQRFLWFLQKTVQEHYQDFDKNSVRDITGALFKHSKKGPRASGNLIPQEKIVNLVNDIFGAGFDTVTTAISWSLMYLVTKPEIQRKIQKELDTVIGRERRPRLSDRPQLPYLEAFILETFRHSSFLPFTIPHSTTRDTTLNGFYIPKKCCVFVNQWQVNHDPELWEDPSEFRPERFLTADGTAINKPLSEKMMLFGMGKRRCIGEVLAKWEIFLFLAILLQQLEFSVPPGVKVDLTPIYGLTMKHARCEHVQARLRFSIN
Test: Inhibition of CYP1A2 in human liver microsomes using phenacetin as susbtrate incubated for 30 mins prior to substrate addition for 10 mins by LC-MS/MS analysis
Format: ADME
measuredEndpoint: IC50

Consider the molecule Cc1ncc(OC[C@@]2(c3cccc(F)c3)C[C@H]2C(=O)Nc2ccc(F)cn2)c(C)n1 and give its measured IC50.
> 20 µM

====

target: CYP3A (Homo sapiens, UniProt P08684+P20815+P24462+Q9HB55); assay: Time dependent inhibition of CYP3A in human liver microsomes assessed as enzyme activity using midazolam as substrate at 10 uM incubated for 30 mins prior to substrate addition for 10 mins by LC-MS/MS analysis; type: ADME; parameters: scale not given: the % may be the effect or the level left; settings: probe midazolam, read-out: Activity
We begin with a simple list: items and their reported activity at 10 min, 10 µM.
Units required after the number.

Provide value of activity at 10 min, 10 µM for this record tested with CYP3A (Homo sapiens, UniProt P08684+P20815+P24462+Q9HB55): Cc1ncc(OC[C@@]2(c3ccccc3)C[C@H]2C(=O)Nc2cccc(F)n2)c(C)n1
94%

Now this one: Cc1ncc(OC[C@@]2(c3cccc(F)c3)C[C@H]2C(=O)Nc2cc(C)c(F)cn2)c(C)n1
83%

Now this one: CCn1cc(OC[C@@]2(c3ccccc3)C[C@H]2C(=O)Nc2ccc(C#N)cn2)c(C)n1
93%

More entries:
Provide value of activity at 10 min, 10 µM for this record tested with CYP3A (Homo sapiens, UniProt P08684+P20815+P24462+Q9HB55): Cc1cc(OCC2(c3ccccc3)CC2C(=O)Nc2ccc(C#N)cn2)cc(C)n1 (racemic)
94%

Now this one: Cc1ccc(NC(=O)[C@@H]2C[C@@]2(COc2cnc(C)nc2C)c2ccccc2)nc1
22%

Now this one: Cc1ncc(OC[C@@]2(c3ccccc3)C[C@H]2C(=O)Nc2cccnc2)c(C)n1
104%

Now this one: Cc1ncc(OC[C@@]2(c3cc(F)cc(F)c3)C[C@H]2C(=O)Nc2ccc(F)cn2)c(C)n1
62%

Now this one: Cc1ncc(OC[C@@]2(c3ccccc3F)C[C@H]2C(=O)Nc2ccc(F)cn2)c(C)n1
77%

Now this one: Cc1ccnc(NC(=O)[C@@H]2C[C@@]2(COc2cnc(C)nc2C)c2ccccc2)c1
90%
